system: BJ; experiment: growth inhibition of engineered Ras-driven BJ cells – cell-based, alamar blue fluorescence, cherrypicked samples, dose response (AID 2631); format: functional; conditions: Homo sapiens;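 also: confirmatory dose-response assay in RAS-dependent BJ fibroblasts engineered with TERT, LT and ST, with cytotoxicity read by fluorescence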
Activity calls are given as the source filed them.
A collection of compounds and their measured EC50

O=C(NCc1cccnc1)c1ccc(NC(=O)c2cccc([N+](=O)[O-])c2)cc1 ... 36 µM (active)
Cc1ccc(N2C(=O)c3cccc4c([N+](=O)[O-])ccc(c34)C2=O)c2cccnc12 ... 0.782 µM (active)
Cn1c(/C=C/c2ccc([N+](=O)[O-])o2)nc2ccccc2c1=O ... 1.35 µM (active)
CC1CCCCC1N(C)C1CCN(C(=O)CNC(=O)/C=C/c2cccc(Cl)c2)CC1 (stereo unspecified) ... 1.51 µM (active)
O=C(N/N=C/c1ccc([N+](=O)[O-])o1)c1cc2ccccc2o1 ... 4.63 µM (inconclusive)

Note: attention shifts to another entry.
[ask] For "Cc1cc(Cl)n2c(nc3ccccc32)c1C#N" , what is its reported EC50?
[reply] 0.343 µM (inconclusive)

====

target: Cytochrome P450 2C9 (Homo sapiens)
Sequence (P11712 whole entry): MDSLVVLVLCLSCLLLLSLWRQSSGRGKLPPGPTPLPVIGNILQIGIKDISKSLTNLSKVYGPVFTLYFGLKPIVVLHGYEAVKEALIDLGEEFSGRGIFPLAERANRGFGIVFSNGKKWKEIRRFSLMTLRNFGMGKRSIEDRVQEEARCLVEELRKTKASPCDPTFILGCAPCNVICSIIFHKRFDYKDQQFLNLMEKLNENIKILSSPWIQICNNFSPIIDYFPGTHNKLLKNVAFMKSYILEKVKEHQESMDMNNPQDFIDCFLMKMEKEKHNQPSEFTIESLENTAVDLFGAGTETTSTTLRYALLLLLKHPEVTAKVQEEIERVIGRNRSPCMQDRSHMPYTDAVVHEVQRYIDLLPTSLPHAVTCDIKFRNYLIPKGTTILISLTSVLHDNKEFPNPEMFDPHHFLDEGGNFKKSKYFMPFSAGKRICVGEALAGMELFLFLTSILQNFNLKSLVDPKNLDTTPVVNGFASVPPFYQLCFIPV
A collection of molecules and their measured AC50

Some molecules with recorded AC50:
CC(=O)c1nnn(-c2nc(N)nc(N(c3ccccc3)c3ccccc3)n2)c1C ... 31.6 µM (inconclusive)
Cc1noc(C)c1C(=O)N1CCC[C@@]2(CCN(c3ccccc3)C2)C1 ... 20 µM (inconclusive)
O=c1c(-c2ccccc2)nc2cnc(Oc3ccccc3)nc2n1Cc1cccs1 ... 3.16 µM (inconclusive)
N#Cc1ccc(CN2CCCC3(CCN(C(=O)Oc4ccccc4)CC3)C2)cc1 ... 39.8 µM (inconclusive)
O=C(O)CCC(=O)N1CCN(c2ccccn2)CC1 ... 0.891 µM (inconclusive)
O[C@H](CCCN1CCN(c2ncc(F)cn2)CC1)c1ccc(F)cc1 ... 12.6 µM (inconclusive)
Nc1nc(-c2ccccc2)cc(-c2ccccc2O)n1 ... 3.55 µM (inconclusive)
O=C(c1ccc2c(=O)n(CC3CCCO3)c(=S)[nH]c2c1)N1CCN(c2ccccc2)CC1 (stereo unspecified) ... 7.94 µM (inconclusive)
COc1ccc(/C=C(/NC(C)=O)C(=O)O)cc1 ... 10 µM (inconclusive)
Nc1nc2ccc(Cl)cc2c2nc(-c3ccco3)nn12 [CGS-15943] ... 31.6 µM (inconclusive)

[ask] For O=C(NCCN1CCOCC1)c1nn2c(c1Cl)NC(c1ccccc1)CC2C(F)(F)F (stereo unspecified) , what is its reported AC50?
[reply] 35.5 µM (inconclusive)

[ask] Another molecule: "Cc1noc(N)c1C(=O)Nc1ccc(F)cc1"
[reply] 3.98 µM (inconclusive)

[ask] Another molecule: "Cc1cccc(Cn2cnc3c(NS(C)(=O)=O)c(C)c(C)cc32)c1"
[reply] 1.26 µM (inconclusive)

====

assay: blockers of CRF-binding protein–CRF-R2 complex – cell-based, uHTS hits, 384-well, dose response (AID 651639); type: functional, Homo sapiens; conditions: read-out: IC50_Mean
The source made the active and inactive calls.
Please answer using one outcome listed in active, inactive

For orientation, consider the following solved cases.
NC(=O)c1ccc(NCc2ccco2)c([N+](=O)[O-])c1 ... active
O=c1oc2ccc3ccccc3c2cc1-c1nnc(-c2ccccc2)o1 ... active
Cc1ccc(-c2csc(Nc3ccc(C(=O)O)cc3)[n+]2Cc2ccccc2)cc1 ... active
CCCN1C(=O)c2ccccc2NC1c1ccc(OC)c(CSc2ccccn2)c1 (stereo not given) ... inactive

# evaluate next
[ask] Recorded test outcome, item "N#C/C(=N\Nc1ccccc1Cl)C(=O)c1ccccc1"
[reply] inactive
